target: human 5HT4 receptor (human, UniProt Q13639 1-388); assay: cell-based or functional assay
Sequence (Q13639 whole entry): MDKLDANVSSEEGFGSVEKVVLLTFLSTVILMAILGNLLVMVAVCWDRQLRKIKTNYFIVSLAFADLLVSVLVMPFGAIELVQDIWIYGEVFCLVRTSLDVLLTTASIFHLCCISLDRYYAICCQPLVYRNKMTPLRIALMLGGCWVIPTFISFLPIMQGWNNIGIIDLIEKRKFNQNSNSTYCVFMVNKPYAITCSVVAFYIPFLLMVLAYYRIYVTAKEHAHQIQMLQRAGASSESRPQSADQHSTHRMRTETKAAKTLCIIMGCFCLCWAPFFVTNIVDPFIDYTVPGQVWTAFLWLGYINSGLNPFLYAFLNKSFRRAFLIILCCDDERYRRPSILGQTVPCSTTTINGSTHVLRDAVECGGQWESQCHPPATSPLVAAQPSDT
OBSERVABLE: max Ca2+ signal, COS-7, FLIPR; agonist 5HT (fluorescence units)

| BINDER | UNITS_TEXT | OBSERVED_MEASUREMENT |
| --- | --- | --- |
| C. elegans Gαq/s9 (other) MACCLSEEAREQKRINQEIEKQLQRDKRNARRELKLLLLGTGESGKSTFIKQMRIIHGQGYSEEDKRAHIRLVYQNVFMAIQSMIRAMDTLDIKFGNESEELQEKAAVVREVDFESVTSFEEPYVSYIKELWEDSGIQECYDRRREYQLTDSAKYYLSDLRRLAVPDYLPTEQDILRVRVPTTGIIEYPFDLEQIIFRMVDVGGQRSERRKWIHCFENVTSIMFLVALSEYDQVLVECDNENRMEESKALFRTIITYPWFTNSSVILFLNKKDLLEEKILYSHLADYFPEYDGPPRDPIAAREFILKMFVDLNPDADKIIYSHFTCATDTENIRFVFAAVKDTILQMHLRQYELL | fluorescence units | 1700 |
| Human Gαq/s9 (other) MTLESIMACCLSEEAKEARRINDEIERQLRRDKRDARRELKLLLLGTGESGKSTFIKQMRIIHGSGYSDEDKRGFTKLVYQNIFTAMQAMIRAMDTLKIPYKYEHNKAHAQLVREVDVEKVSAFENPYVDAIKSLWNDPGIQECYDRRREYQLSDSTKYYLNDLDRVADPSYLPTQQDVLRVRVPTTGIIEYPFDLQSVIFRMVDVGGQRSERRKWIHCFENVTSIMFLVALSEYDQVLVESDNENRMEESKALFRTIITYPWFQNSSVILFLNKKDLLEEKIMYSHLVDYFPEYDGPQRDAQAAREFILKMFVDLNPDSDKIIYSHFTCATDTENIRFVFAAVKDTILQMHLRQYELL | fluorescence units | 2310 |
| C. elegans Gαq/s21 (other) MACCLSEEAREQKRINQEIEKQLQRDKRNARRELKLLLLGTGESGKSTFIKQMRIIHGQGYSEEDKRAHIRLVYQNVFMAIQSMIRAMDTLDIKFGNESEELQEKAAVVREVDFESVTSFEEPYVSYIKELWEDSGIQECYDRRREYQLTDSAKYYLSDLRRLAVPDYLPTEQDILRVRVPTTGIIEYPFDLEQIIFRMVDVGGQRSERRKWIHCFENVTSIMFLVALSEYDQVLVECDNENRMEESKALFRTIITYPWFTNSSVILFLNKKDLLEEKILYSHLADYFPEYDGPPRDPIAAREFILKMFVDLNPDADKIIYSHFTCATDTENIRRVFNDCRDIIQRMHLRQYELL | fluorescence units | 1730 |

Data provenance is patent US7067277.
